composite z-score reference
# assayed_target: Alpha-bungarotoxin (Bungarus multicinctus) (UniProt P60615)
# Sequence (P60615 whole entry, looked up): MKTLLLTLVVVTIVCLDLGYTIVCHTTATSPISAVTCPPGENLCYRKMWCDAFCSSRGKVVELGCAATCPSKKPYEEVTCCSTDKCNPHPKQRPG
# assay_protocol: alpha-bungarotoxin binders on microarray, profiling panel, artefact control for SMM control protein annotation, biochemical, small-molecule microarray, Alexa647 label, 635/667 nm fluorescence (AID 1117)
# stated_conditions: alpha-BTX-A647 binding fluorescence, higher = more signal

Here are 3 compounds together with their reported answers.
CCCCCN1CC=CC23O[C@@H]4/C=C\CCCOC(=O)C4[C@H]2C(=O)N(C(CO)C(C)C)[C@@H]3C1=O (some centres undefined) : -0.0063
C[C@]1(C(=O)NC2CC2)c2ccccc2C(=O)N(Cc2cc(C(F)(F)F)cc(C(F)(F)F)c2)[C@H]1c1ccc(CO)cc1 : 1.48
COc1ccc(CCN2C(=O)[C@@]3(c4ccc([N+](=O)[O-])cc4)CC(=O)N(C4CCCCC4)[C@@H]3c3ccc(CO)cc32)cc1 : -0.167

# input for lookup
Which composite z-score value belongs to CCCC=C(CCC)[C@@H](NC(=O)Oc1ccc(F)cc1)c1ccc(C(=O)OC)cc1 ?
0.799
